# tested.system: HsaGST M2-2 (Homo sapiens)
# Construct: made in house
# experiment: Inhibition of HsaGST M2-2 CDNB activity
# Type: biochemical
# condition.context: CDNB activity, 1 mM GSH, 1 mM CDNB, pH 6.5, 30°C; read-out: IC50 HsaGST M2-2
parameter: pIC50
The meaning of pIC50 here: minus log10 of the concentration in molar units.

CCc1ccc(CCOc2ccc(CC3SC(=O)NC3=O)cc2)nc1 (stereo not drawn) [Pioglitazone]; 5.23
Cc1cc(/C=C/c2ccc3cc(N(C)C)ccc3[n+]2C)c(C)n1-c1ccccc1 [Pyrvinium pamoate]; 5.92
O=C(OCC1OC(OC(=O)c2cc(O)c(O)c(OC(=O)c3cc(O)c(O)c(O)c3)c2)C(OC(=O)c2cc(O)c(O)c(OC(=O)c3cc(O)c(O)c(O)c3)c2)C(OC(=O)c2cc(O)c(O)c(OC(=O)c3cc(O)c(O)c(O)c3)c2)C1OC(=O)c1cc(O)c(O)c(OC(=O)c2cc(O)c(O)c(O)c2)c1)c1cc(O)c(O)c(OC(=O)c2cc(O)c(O)c(O)c2)c1 (stereo not drawn) [Tannic acid]; 5.92
CN1CCCN=C1/C=C/c1cccc(O)c1 [Oxantel pamoate]; 5.77
O=C([O-])c1ccccc1-c1c2cc(Br)c(=O)cc-2oc2[c]([Hg+])c([O-])c(Br)cc12.[Na+].[Na+].[OH-] [Merbromin]; 5.31

Lab book: pIC50 of CC1=C(CC(=O)O)c2cc(F)ccc2/C1=C\c1ccc([S+](C)[O-])cc1 (stereo not drawn) [Sulindac] noted as 4.64

Lab book: pIC50 of OCCOCCN1CCN(C(c2ccccc2)c2ccc(Cl)cc2)CC1 (stereo not drawn) [Hydroxyzine pamoate] noted as 6.12

Lab book: pIC50 of OC[C@H]1O[C@H]([S-])[C@H](O)[C@@H](O)[C@@H]1O.[Au+] [Aurothioglucose] noted as 4.92

Lab book: pIC50 of CN1CCCN=C1/C=C/c1cccs1 [Pyrantel pamoate] noted as 5.85

----------
# tested.system: EcaGST A3-3 (Equus caballus, UniProt M9ZT87)
# Sequence (M9ZT87 entry or part of it): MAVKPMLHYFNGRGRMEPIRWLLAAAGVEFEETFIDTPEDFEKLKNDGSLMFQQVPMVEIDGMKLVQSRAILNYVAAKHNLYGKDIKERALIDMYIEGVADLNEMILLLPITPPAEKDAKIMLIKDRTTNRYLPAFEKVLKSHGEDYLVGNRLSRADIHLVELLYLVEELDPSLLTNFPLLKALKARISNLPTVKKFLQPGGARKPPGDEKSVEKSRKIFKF
# experiment: Inhibition of EcaGST A3-3 steroid double-bond isomerase activity with Δ^5-AD
# Format: biochemical, Equus ferus caballus
# condition.context: dose-response curve, substrate Δ^5-AD, mean ± SD
parameter: Hill coefficient, Δ^5-AD inhibition
Write the value as a bare number.

The following compounds have reported results that may help.
O=C(OCC1OC(OC(=O)c2cc(O)c(O)c(OC(=O)c3cc(O)c(O)c(O)c3)c2)C(OC(=O)c2cc(O)c(O)c(OC(=O)c3cc(O)c(O)c(O)c3)c2)C(OC(=O)c2cc(O)c(O)c(OC(=O)c3cc(O)c(O)c(O)c3)c2)C1OC(=O)c1cc(O)c(O)c(OC(=O)c2cc(O)c(O)c(O)c2)c1)c1cc(O)c(O)c(OC(=O)c2cc(O)c(O)c(O)c2)c1 (stereo not shown); 2.1
C=C(CC)C(=O)c1ccc(OCC(=O)O)c(Cl)c1Cl; 1.0
O=C1c2c(O)cccc2Cc2cccc(O)c21; 1.9

Moving on to the next compound.
Lab book: Hill coefficient, Δ^5-AD inhibition of O=C(O)c1cc(O)c2c(c1)[C@H]([C@H]1c3cc(C(=O)O)cc(O)c3C(=O)c3c(O[C@@H]4O[C@H](CO)[C@@H](O)[C@H](O)[C@H]4O)cccc31)c1cccc(O[C@@H]3O[C@H](CO)[C@@H](O)[C@H](O)[C@H]3O)c1C2=O [Sennoside A] noted as 2.1

----------
# tested.system: EcaGST A3-3 (Equus caballus)
# experiment: Inhibition of EcaGST A3-3 activity, GSH conjugation with CDNB
# Format: biochemical, Equus ferus caballus
# condition.context: 1 mM CDNB, 1 mM GSH, 100 mM sodium phosphate pH 6.5, 30°C; read-out: IC50 EcaGST A3-3, substrate CDNB
parameter: IC50

O=C([O-])c1ccccc1-c1c2cc(Br)c(=O)cc-2oc2[c]([Hg+])c([O-])c(Br)cc12.[Na+].[Na+].[OH-] [Merbromin]; 2600 nM
O=C1c2c(O)cccc2Cc2cccc(O)c21 [Anthralin]; 2100 nM

Lab book: IC50 of Oc1c(Cl)cc(Cl)cc1Sc1cc(Cl)cc(Cl)c1O [Bithionate sodium] noted as 1900 nM

Lab book: IC50 of O=C(OCC1OC(OC(=O)c2cc(O)c(O)c(OC(=O)c3cc(O)c(O)c(O)c3)c2)C(OC(=O)c2cc(O)c(O)c(OC(=O)c3cc(O)c(O)c(O)c3)c2)C(OC(=O)c2cc(O)c(O)c(OC(=O)c3cc(O)c(O)c(O)c3)c2)C1OC(=O)c1cc(O)c(O)c(OC(=O)c2cc(O)c(O)c(O)c2)c1)c1cc(O)c(O)c(OC(=O)c2cc(O)c(O)c(O)c2)c1 (stereo not drawn) [Tannic acid] noted as 330 nM

Lab book: IC50 of O=C(O)c1cc(O)c2c(c1)[C@H]([C@H]1c3cc(C(=O)O)cc(O)c3C(=O)c3c(O[C@@H]4O[C@H](CO)[C@@H](O)[C@H](O)[C@H]4O)cccc31)c1cccc(O[C@@H]3O[C@H](CO)[C@@H](O)[C@H](O)[C@H]3O)c1C2=O [Sennoside A] noted as 2800 nM

Lab book: IC50 of OC[C@H]1O[C@H]([S-])[C@H](O)[C@@H](O)[C@@H]1O.[Au+] [Aurothioglucose] noted as 850 nM

----------
# tested.system: EcaGST A3-3 (Equus caballus, UniProt M9ZT87)
# experiment: Inhibition of EcaGST A3-3 activity, GSH conjugation with CDNB
# Format: biochemical, Equus ferus caballus
# condition.context: 10 μM inhibitor, 1 mM GSH, 1 mM CDNB, sodium phosphate pH 6.5, 30°C; read-out: Inhibition (%) of EcaGST A3-3
Where a name gives a salt, the structure may show the parent alone.
Dear colleague, classification is by inhibition at 10 µM, with ranges listed here: low band: < 40%; middle band: ≥ 40% and < 60%; high band: ≥ 60%

Class for CC(C)/N=c1\cc2n(-c3ccc(Cl)cc3)c3ccccc3nc-2cc1Nc1ccc(Cl)cc1 ?
middle band

Class for CC[C@H](C)C(=O)O[C@H]1C[C@@H](C)C=C2C=C[C@H](C)[C@H](CC[C@@H]3C[C@@H](O)CC(=O)O3)[C@H]21 ?
low band

Class for COC(=O)Nc1nc2ccc(C(=O)c3ccccc3)cc2[nH]1 ?
low band

Class for COC(=O)C1=C(C)NC(C)=C(C(=O)OCC(C)C)C1c1ccccc1[N+](=O)[O-] (stereo not shown) ?
high band

Class for C[n+]1cc2c3c(ccc2c2ccc4cc5c(cc4c21)OCO5)OCO3 [Sanguinarine sulfate] ?
middle band

Class for Oc1c(I)cc(Cl)c2cccnc12 ?
high band

----------
# tested.system: HsaGST A3-3 (Homo sapiens, UniProt Q16772)
# Construct: made in house
# Sequence (Q16772 whole entry): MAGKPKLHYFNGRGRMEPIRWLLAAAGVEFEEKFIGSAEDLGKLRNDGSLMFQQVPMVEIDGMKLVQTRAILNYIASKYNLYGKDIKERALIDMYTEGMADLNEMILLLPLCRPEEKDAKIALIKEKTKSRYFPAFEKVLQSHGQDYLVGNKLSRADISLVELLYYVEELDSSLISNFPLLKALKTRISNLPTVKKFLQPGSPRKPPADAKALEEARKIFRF
# experiment: Inhibition of HsaGST A3-3 CDNB activity
# Type: biochemical
# condition.context: CDNB activity, 1 mM GSH, 1 mM CDNB, pH 6.5, 30°C
pIC50: −log10 of the molar value.
Where pIC50 equals or exceeds 6, the correct label is Met; where it does not, the label is Not met.

COC(=O)C1=C(C)NC(C)=C(C(=O)OCC(C)C)C1c1ccccc1[N+](=O)[O-] (centres unmarked) [Nisoldipine]; Not met

Next up:
State whether the measured pIC50 reaches 6, counting equality as reaching it, for O=C(OCC1OC(OC(=O)c2cc(O)c(O)c(OC(=O)c3cc(O)c(O)c(O)c3)c2)C(OC(=O)c2cc(O)c(O)c(OC(=O)c3cc(O)c(O)c(O)c3)c2)C(OC(=O)c2cc(O)c(O)c(OC(=O)c3cc(O)c(O)c(O)c3)c2)C1OC(=O)c1cc(O)c(O)c(OC(=O)c2cc(O)c(O)c(O)c2)c1)c1cc(O)c(O)c(OC(=O)c2cc(O)c(O)c(O)c2)c1 (centres unmarked) [Tannic acid]
Met

----------
# tested.system: HsaGST M2-2 (Homo sapiens, UniProt P28161)
# Construct: made in house
# Sequence (P28161 1-218): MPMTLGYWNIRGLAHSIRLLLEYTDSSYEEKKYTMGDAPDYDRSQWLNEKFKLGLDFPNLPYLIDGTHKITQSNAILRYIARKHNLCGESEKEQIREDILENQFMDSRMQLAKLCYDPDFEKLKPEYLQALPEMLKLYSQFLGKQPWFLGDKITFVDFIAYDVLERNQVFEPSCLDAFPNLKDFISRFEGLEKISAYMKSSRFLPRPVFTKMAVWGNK
# experiment: Inhibition of HsaGST M2-2 CDNB activity
# Format: biochemical
parameter: pIC50
The meaning of pIC50 here: minus log10 of the concentration in molar units.

Lab book: pIC50 of Oc1c(Cl)cc(Cl)c(Cl)c1Cc1c(O)c(Cl)cc(Cl)c1Cl noted as 5.82
